Ref: PubChem BioAssay

Target: Alpha-bungarotoxin (Bungarus multicinctus) (UniProt P60615)
Sequence (P60615 whole entry, looked up): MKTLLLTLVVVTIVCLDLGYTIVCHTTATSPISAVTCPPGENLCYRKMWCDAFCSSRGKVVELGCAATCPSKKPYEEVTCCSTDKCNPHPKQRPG
Test: compounds binding labelled alpha-BTX control protein – biochemical, small-molecule microarray, Alexa647 label, 635/667 nm fluorescence, artefact control for SMM control protein annotation, profiling panel (AID 1117)
Conditions: alpha-BTX-A647 binding fluorescence, higher = more signal
composite z-score of 0.7 or higher: satisfied. Under 0.7: not satisfied.

Use the examples below as a reference point.
Prompt: Dear colleague, could you confirm whether O=C1O[C@H](c2ccccc2)[C@H](c2ccccc2)N2[C@H]1[C@@H](C(=O)O)[C@]1(C(=O)Nc3ccc(C#CCCO)cc31)[C@H]2c1ccccc1OCCO has composite z-score at or above 0.7?
Response: not satisfied

Prompt: Dear colleague, could you confirm whether O=C(NCCN1CCOCC1)[C@@H]1c2ccccc2C(=O)N(C2Cc3ccccc3C2)[C@H]1c1ccc(CO)cc1 has composite z-score at or above 0.7?
Response: satisfied

Prompt: Dear colleague, could you confirm whether O=C1OCCC=C[C@H]2OC34C=CCN(Cn5nnc6ccccc65)C(=O)[C@H]3N(CCCO)C(=O)[C@@H]4C12 (some centres not stated) has composite z-score at or above 0.7?
Response: not satisfied

Prompt: Dear colleague, could you confirm whether COc1cc2c(cc1O)C(C1CC1)N(Cc1cccc(OC(F)(F)F)c1)CC2 (configuration not stated) has composite z-score at or above 0.7?
Response: not satisfied

Prompt: Dear colleague, could you confirm whether CC1=C2[C@@H](CCc3ccccc3)OB(O)C[C@@H]2[C@@H]2C(=O)N(Cc3ccccc3)C(=O)[C@@H]2C1 has composite z-score at or above 0.7?
Response: not satisfied

Next:
Prompt: Dear colleague, could you confirm whether COc1ccc([Si](C)(C)[C@@H]2[C@@H](CC(=O)N3Cc4ccccc4C[C@H]3CO)O[C@]3(C(=O)N(Cc4ccc(N5C(=O)c6cccc7cccc5c67)cc4)c4ccccc43)[C@H]2C)cc1 has composite z-score at or above 0.7?
Response: satisfied

Prompt: Dear colleague, could you confirm whether NCCCCCCNC(=O)[C@@H]1C[C@@H]2C(=O)N[C@@H](CCCCN)C(=O)N2[C@@H]1c1ccc(O)cc1 has composite z-score at or above 0.7?
Response: not satisfied

###

Molecular target: Torsin-1A-interacting protein 1 (Homo sapiens)
Assay: compound microarray binding of lysate hLAP1 – cell lysate, small-molecule microarray, COS7 lysate, 635/667 nm fluorescence, primary screen (AID 1116)
Details: 635 nm fluorescence, higher = more signal
Measure Name: composite z-score
One number for each entry.

Examples from the recorded data:
Prompt: // returns reported composite z-score for input C=C[C@@H](CO)N(Cc1ccc(OC)cc1)S(=O)(=O)c1ccc(Br)cc1
Response: 0.572

Prompt: // returns reported composite z-score for input C#CCN(Cc1ccccc1Br)[C@H](/C=C/c1ccccc1)[C@@H](O)Cc1ccccc1
Response: -0.354

Prompt: // returns reported composite z-score for input COCCOC(=O)N1C(=O)[C@@]2(c3cc(C#CC4=CCCCC4)ccc31)[C@H](C(=O)Nc1nc3ccccc3s1)[C@H]1C(=O)O[C@H](c3ccccc3)[C@H](c3ccccc3)N1[C@@H]2c1ccc(O)cc1
Response: 0.666

Could you report composite z-score for every entry in the following list?
1. CC(C)c1ccc(NN2C(C(O)c3ccc(F)cc3)C=CC3C(=O)N(c4ccccc4)C(=O)C32)cc1 (stereo unspecified)
2. CN(C)c1ccc(C(O)C2C=CC3C(=O)NC(=O)C3N2Nc2ccccn2)cc1 (stereo unspecified)
3. CN1C2C=C(CCCO)C(C3C(=O)N(C(N)=O)C(=O)C32)C1C1CC1 (stereo unspecified)
4. COC(=O)[C@@H]1N=C(c2ccc(OCCCO)cc2)O[C@@H]1C
5. COc1ccc(CCNC(=O)[C@@]2(Sc3ccc(C)cc3)CC(=O)N(Cc3ccccc3C(F)(F)F)[C@@H]2c2ccc(CO)cc2I)cc1
6. COCCCNC(=O)[C@@H]1c2ccccc2C(=O)N(C(C)C)[C@H]1c1ccc(CO)cc1

Response:
1. 0.305
2. -0.269
3. 0.474
4. 1.71
5. 0.357
6. 0.846

Could you report composite z-score for every entry in the following list?
1. COc1ccc(C(=O)Nc2ccc(CN3C(=O)[C@]4(O[C@H](CC(=O)N5Cc6ccccc6C[C@H]5CO)[C@@H]([Si](C)(C)c5ccc(OC)cc5)[C@@H]4C)c4ccccc43)cc2)cc1
2. CCCC1(C(=O)OC)C=C2C(=C(C)C(=O)C2C)CN1 (stereo unspecified)
3. CCCC[C@@H](O)C1=C(COC)C[C@H]2C(=O)N(C)C(=O)[C@H]2[C@H]1CO
4. [N-]=[N+]=NCc1ccccc1[C@H]1OC(c2ccc(OCCCO)cc2)=N[C@@]1(Cc1ccccc1N=[N+]=[N-])C(=O)NCC(O)CO (stereo partly specified)
5. O=C(O)[C@@H]1C[C@@H]2C(=O)N3CCC[C@H]3C(=O)N2[C@@H]1c1ccc(O)cc1
6. [N-]=[N+]=NCc1ccccc1C[C@@]1(C(N)=O)N=C(c2ccc(OCCCO)cc2)O[C@@H]1c1ccccc1

Response:
1. 0.795
2. 0.635
3. 0.13
4. 1.48
5. 0.343
6. 2.07

Prompt: // returns reported composite z-score for input COc1ccc([Si](C)(C)[C@@H]2[C@@H](CCO)O[C@]3(C(=O)N(Cc4cccc(NC(=O)[C@H](C)O)c4)c4ccccc43)[C@H]2C)cc1
Response: 0.999

###

Test: JC-1 mitochondrial potential readout, lung cancer cells – cell-based, A549, JC-1 fluorescence, basal, 24 h, 100 nL, profiling panel (AID 1138);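 also: A549 lung adenocarcinoma cells under basal conditions with no added stimulus; test concentration not given here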
Details: higher = more signal
z-score of 0.1 or higher: 1 (yes). Under 0.1: 0 (no).

Use the examples below as a reference point.
Prompt: Dear colleague, could you confirm whether CC(C)C(CO)N1C(=O)[C@@H]2C3C(=O)OCCC/C=C\[C@H]3OC23C=CCN(c2ccc4ccccc4c2)C(=O)[C@@H]13 (some centres not stated) has z-score at or above 0.1?
Response: 1 (yes)

Prompt: Dear colleague, could you confirm whether CCOC(=O)C1=C[C@@H](c2ccccc2)N(S(=O)(=O)c2ccc(C)cc2)[C@H]1c1ccc(OC)cc1 has z-score at or above 0.1?
Response: 1 (yes)

Prompt: Dear colleague, could you confirm whether Cc1ccc(S[C@]2(C(=O)O)CC(=O)N(C3CCCCC3)[C@@H]2c2ccc(CO)cc2I)cc1 has z-score at or above 0.1?
Response: 0 (no)

Prompt: Dear colleague, could you confirm whether C=CCC(OC(C)=O)[C@@H]1[C@@H](N(Cc2ccc(-c3cccc(C(F)(F)F)c3)o2)C(=O)Cc2ccc(OC)cc2)c2cc(OCCCO)ccc2N1C(=O)c1ccc(-c2ccccc2)cc1 (some centres not stated) has z-score at or above 0.1?
Response: 0 (no)

Prompt: Dear colleague, could you confirm whether CCOC(=O)C[C@H]1[C@H](OC(=O)c2ccc(C(=O)c3ccccc3)cc2)[C@@H](NC(=O)CC(C)C)c2cc(OCCCO)ccc2N1C(=O)c1ccccc1 has z-score at or above 0.1?
Response: 1 (yes)

Prompt: Dear colleague, could you confirm whether COC(=O)C1=CC(CCCO)=CC(c2cccs2)N(C)C=C1C(=O)OC (configuration not stated) has z-score at or above 0.1?
Response: 0 (no)

Now for a further molecule.
Prompt: Dear colleague, could you confirm whether O=C(NCCN1CCOCC1)[C@@H]1c2ccccc2C(=O)N(C2Cc3ccccc3C2)[C@H]1c1ccc(CO)cc1 has z-score at or above 0.1?
Response: 1 (yes)

###

Could you please report measured composite z-score for the items listed next?
Target: Fibroblast growth factor 2 (Homo sapiens)
Experiment: basic fibroblast growth factor binding to printed compounds – biochemical, small-molecule microarray, 635/667 nm fluorescence, primary screen (AID 1133)
Conditions: FGF2, fluorescence 635/667, higher = more signal
One number for each entry.

Prompt: // returns reported composite z-score for input C#Cc1cc2ccccc2oc1=O
Response: -1.39

Prompt: // returns reported composite z-score for input C[N+](C)(C)CCCC[C@@H]1NC(=O)[C@@H]2C[C@H](C(=O)NCCCCCCN)[C@H](c3cccc(OCCO)c3)N2C1=O
Response: 0.5

Prompt: // returns reported composite z-score for input CO[C@H]1O[C@H](CO)[C@@H](OC(=O)CCc2ccccc2)[C@@H]2OC(=O)[C@@H](Cc3ccccc3)C/C=C/C[C@H](Cc3ccccc3)C(=O)O[C@@H]12
Response: 1.31

Prompt: // returns reported composite z-score for input CCCCNC(=O)c1ccc(C#CC(C)(C)C)c(OC(C)=O)c1
Response: 0.553

Prompt: // returns reported composite z-score for input CCCC=C(CCC)[C@@H](NC(=O)C(C)(C)C)c1ccc(C(=O)OC)cc1
Response: -0.764

Prompt: // returns reported composite z-score for input C=CC[C@]1(C(=O)N2CCCCC2)N=C(c2ccc(OCCCO)cc2)O[C@H]1c1ccccc1CN=[N+]=[N-]
Response: 0.524

Prompt: // returns reported composite z-score for input CC(C)=C1C(=O)C(c2ccccc2)=C2CN3C(=O)N(CCc4ccccc4)C(=O)[C@]3(Cc3ccc(C(F)(F)F)cc3)[C@H]21
Response: -1.29

Prompt: // returns reported composite z-score for input COC(=O)C1(CC(C)C)C=C2C(=C(c3ccccc3)C(=O)C2C)CN1 (configuration not stated)
Response: 0.953

Could you report composite z-score for every entry in the following list?
1. COC(=O)[C@@]1(Cc2ccc(OC)cc2)[C@H]2c3cc(C(=O)N(C)C)n(Cc4ccc(C)o4)c3C[C@H]2CN1C(=O)c1ccccc1
2. CCOC(=O)C[C@H]1[C@H](OC(=O)Cc2ccc3c(c2)OCO3)[C@@H](NC(=O)c2ccc3ccccc3n2)c2cc(OCCCO)ccc2N1C(=O)c1ccccc1
3. COc1ccc(C(=O)Nc2ccc(CN3C(=O)[C@]4(O[C@H](CC(=O)N5Cc6ccccc6C[C@H]5CO)[C@@H]([Si](C)(C)c5ccc(OC)cc5)[C@@H]4C)c4ccccc43)cc2)cc1
4. COc1cc(C(O)C2C=CC3C(=O)N(C)C(=O)C3N2Nc2ccccc2)cc(OC)c1OC (configuration not stated)
5. O=C(NCCN1CCOCC1)[C@@H]1c2ccccc2C(=O)N(Cc2ccccc2Cl)[C@H]1c1ccc(CO)cc1
6. CCOC(=O)C1=CC[C@@H](c2ccccc2F)N(S(=O)(=O)c2ccc(C)cc2)[C@H]1c1ccccc1
7. COC(=O)C(CC#Cc1ccc2c(c1)[C@]1(C(=O)N2)[C@H](c2ccc(O)cc2)N2[C@H](c3ccccc3)[C@H](c3ccccc3)OC(=O)[C@H]2[C@@H]1C(=O)NC[C@H](O)c1ccccc1)C(=O)OC
8. CC(C)(C)OC(=O)COc1cccc(C(=O)CCN2CCOCC2)c1

Response:
1. -0.48
2. 0.902
3. 1.35
4. -0.397
5. -0.976
6. 0.0808
7. 0.551
8. -0.284
